- System: Klebsiella pneumoniae
- Assay Summary: Antibacterial activity against Klebsiella pneumoniae […] after 24 hrs by agar streak dilution method
- Format: functional
I'd appreciate it if you could supply MIC values for the items below.
Numbers only, in µg/mL.

Consider the following illustrative entries.
CCN1CCN(CC2SC(c3cccc(F)c3)N(c3ccc(Nc4nc(Oc5cc(=O)n(C)c6ccccc56)nc(N(C)C)n4)cc3)C2=O)CC1 (centres undefined) ... 25
CCN1CCN(CC2SC(c3ccc(O)cc3O)N(c3ccc(Nc4nc(Oc5cc(=O)n(C)c6ccccc56)nc(N(C)C)n4)cc3)C2=O)CC1 (centres undefined) ... 100
CCN1CCN(CC2SC(c3ccc(C)cc3)N(c3ccc(Nc4nc(Oc5cc(=O)n(C)c6ccccc56)nc(N(C)C)n4)cc3)C2=O)CC1 (centres undefined) ... 50

Required: MIC, one value per molecule below.
1. O=C(O)c1cn(C2CC2)c2cc(N3CCNCC3)c(F)cc2c1=O
2. CCN1CCN(CC2SC(c3ccccc3C(=O)O)N(c3ccc(Nc4nc(Oc5cc(=O)n(C)c6ccccc56)nc(N(C)C)n4)cc3)C2=O)CC1 (centres undefined)
3. CCN1CCN(CC2SC(c3ccc(F)cc3)N(c3ccc(Nc4nc(Oc5cc(=O)n(C)c6ccccc56)nc(N(C)C)n4)cc3)C2=O)CC1 (centres undefined)
4. CCN1CCN(CC2SC(c3ccc(Br)cc3)N(c3ccc(Nc4nc(Oc5cc(=O)n(C)c6ccccc56)nc(N(C)C)n4)cc3)C2=O)CC1 (centres undefined)
5. CCN1CCN(CC2SC(c3ccccc3)N(c3ccc(Nc4nc(Oc5cc(=O)n(C)c6ccccc56)nc(N(C)C)n4)cc3)C2=O)CC1 (centres undefined)
6. CCN1CCN(CC2SC(c3ccc(Cl)c(Cl)c3)N(c3ccc(Nc4nc(Oc5cc(=O)n(C)c6ccccc56)nc(N(C)C)n4)cc3)C2=O)CC1 (centres undefined)

*A*
1. 1
2. 50
3. 25
4. 100
5. 100
6. 12.5

* * *

- System: Escherichia coli
- Assay Summary: Antibacterial activity against Escherichia coli at 100 ug/disc after 24 hrs by disc diffusion method
- Assay type: functional
- Test Settings: read-out: DIZ
I'd appreciate it if you could supply zone of inhibition at 100 µg/disc values for the items below.
Give bare numbers, in mm.

Consider the following illustrative entries.
CCN1CCN(CC2SC(c3cccc(F)c3)N(c3ccc(Nc4nc(Oc5cc(=O)n(C)c6ccccc56)nc(N(C)C)n4)cc3)C2=O)CC1 (configuration not stated) ... 23
CCN1CCN(CC2SC(c3ccc(O)cc3)N(c3ccc(Nc4nc(Oc5cc(=O)n(C)c6ccccc56)nc(N(C)C)n4)cc3)C2=O)CC1 (configuration not stated) ... 16
CCN1CCN(CC2SC(c3ccc(Cl)cc3)N(c3ccc(Nc4nc(Oc5cc(=O)n(C)c6ccccc56)nc(N(C)C)n4)cc3)C2=O)CC1 (configuration not stated) ... 27
CCN1CCN(CC2SC(c3ccccc3)N(c3ccc(Nc4nc(Oc5cc(=O)n(C)c6ccccc56)nc(N(C)C)n4)cc3)C2=O)CC1 (configuration not stated) ... 22
CCN1CCN(CC2SC(c3ccc(OC)c(OC)c3)N(c3ccc(Nc4nc(Oc5cc(=O)n(C)c6ccccc56)nc(N(C)C)n4)cc3)C2=O)CC1 (configuration not stated) ... 24
CCN1CCN(CC2SC(c3ccc([N+](=O)[O-])cc3)N(c3ccc(Nc4nc(Oc5cc(=O)n(C)c6ccccc56)nc(N(C)C)n4)cc3)C2=O)CC1 (configuration not stated) ... 24
CCN1CCN(CC2SC(c3ccccc3[N+](=O)[O-])N(c3ccc(Nc4nc(Oc5cc(=O)n(C)c6ccccc56)nc(N(C)C)n4)cc3)C2=O)CC1 (configuration not stated) ... 14
CCN1CCN(CC2SC(c3ccc(C(=O)O)cc3)N(c3ccc(Nc4nc(Oc5cc(=O)n(C)c6ccccc56)nc(N(C)C)n4)cc3)C2=O)CC1 (configuration not stated) ... 27
O=C(O)c1cn(C2CC2)c2cc(N3CCNCC3)c(F)cc2c1=O ... 32
CCN1CCN(CC2SC(c3ccc(Cl)cc3Cl)N(c3ccc(Nc4nc(Oc5cc(=O)n(C)c6ccccc56)nc(N(C)C)n4)cc3)C2=O)CC1 (configuration not stated) ... 24

Continue with the next molecule.
*Q* Param item = CCN1CCN(CC2SC(c3ccc(O)cc3O)N(c3ccc(Nc4nc(Oc5cc(=O)n(C)c6ccccc56)nc(N(C)C)n4)cc3)C2=O)CC1 (configuration not stated) ; retrieve measured zone of inhibition at 100 µg/disc.
*A* 15
